- System: Pseudomonas aeruginosa
- Procedure text: Competitive inhibition of Pseudomonas aeruginosa 101/1477 IMP-1 expressed in Escherichia coli BL21(DE3) using benzylpenicillin as substrate assessed as residual activity measured for 5 mins by UV multiplate spectrophotometry
Measured property: Kic (µM)

> print(dat)
                               input.smiles             test.target  measured.property  unit.label  reported.value
1  O=C(CCS)N[C@@H](Cc1c[nH]c2ccccc12)C(=O)O  Pseudomonas aeruginosa                Kic          µM            5.02
2  O=C(CCCS)N[C@@H](Cc1c[nH]c2ccccc12)C(=O)O  Pseudomonas aeruginosa                Kic          µM            8.62
3       O=C(CCS)N[C@@H](Cc1ccc(O)cc1)C(=O)O  Pseudomonas aeruginosa                Kic          µM            5.18
4         O=C(CCCS)N[C@@H](Cc1ccccc1)C(=O)O  Pseudomonas aeruginosa                Kic          µM            2.82
5      O=C(CCCS)N[C@@H](Cc1ccc(O)cc1)C(=O)O  Pseudomonas aeruginosa                Kic          µM            5.63
6  O=C(CCS)N[C@@H](Cc1ccc(OCc2ccccc2)cc1)C(=O)O  Pseudomonas aeruginosa                Kic          µM            9.39

----------
- Test system: Pseudomonas aeruginosa
- Procedure text: Competitive inhibition of Pseudomonas aeruginosa 101/1477 IMP-1 expressed in Escherichia coli BL21(DE3) using benzylpenicillin as substrate assessed as residual activity measured for 5 mins by UV multiplate spectrophotometry
Measured property: log10 Kic (log10 of the value in µM)

> print(dat)
                               input.smiles  reported.value
1                            CC(=O)SCC(=O)O           -0.49
2  O=C(CCCS)N[C@@H](Cc1ccc(OCc2ccccc2)cc1)C(=O)O            0.77
3          O=C(CCS)N[C@@H](Cc1ccccc1)C(=O)O            0.16
4           O=C(CS)N[C@@H](Cc1ccccc1)C(=O)O           -0.60
5  O=C(CS)N[C@@H](Cc1ccc(OCc2ccccc2)cc1)C(=O)O           -1.07
6   O=C(CS)N[C@@H](Cc1c[nH]c2ccccc12)C(=O)O           -0.33
7        O=C(CS)N[C@@H](Cc1ccc(O)cc1)C(=O)O            0.66

----------
- Procedure text: Competitive inhibition of IMP-1 (unknown origin)
Measured property: Ki (nM)

> print(dat)
                      input.smiles  reported.value
1  O=C(CCS)N[C@H](Cc1ccccc1)C(=O)O              88

----------
- Tested on: Pseudomonas aeruginosa
- Procedure text: Uncompetitive inhibition of Pseudomonas aeruginosa 101/1477 IMP-1 expressed in Escherichia coli BL21(DE3) using benzylpenicillin as substrate assessed as residual activity measured for 5 mins by UV multiplate spectrophotometry
Measured property: Kiuc

> print(dat)
                               input.smiles             test.target  reported.value
1  O=C(CCS)N[C@@H](Cc1c[nH]c2ccccc12)C(=O)O  Pseudomonas aeruginosa          > 1 mM
2  O=C(CCCS)N[C@@H](Cc1c[nH]c2ccccc12)C(=O)O  Pseudomonas aeruginosa          > 1 mM
3  O=C(CCCS)N[C@@H](Cc1ccc(OCc2ccccc2)cc1)C(=O)O  Pseudomonas aeruginosa          > 1 mM
4          O=C(CCS)N[C@@H](Cc1ccccc1)C(=O)O  Pseudomonas aeruginosa       0.0602 mM
5           O=C(CS)N[C@@H](Cc1ccccc1)C(=O)O  Pseudomonas aeruginosa          > 1 mM
6  O=C(CCS)N[C@@H](Cc1ccc(OCc2ccccc2)cc1)C(=O)O  Pseudomonas aeruginosa          > 1 mM
7                            CC(=O)SCC(=O)O  Pseudomonas aeruginosa      0.00264 mM
